Tested on: Hs578T cell line
Experiment: SRB proliferation assay
Type: cell-based, human
Conditions: read-out: IC50 proliferation, 72 hours
pIC50: −log10 of the molar value.
Parameter measured: pIC50

get_value(item= CCCCCCCC(=O)SCC/C=C/[C@@H]1CC(=O)NCc2nc(cs2)C(=O)NC(C)(C)C(=O)N[C@@H](C(C)C)C(=O)O1 [OKI-005] , readout=pIC50) returns < 6.30

Reference for the values: paper PMC9600708
